For each record, write down the corresponding GI50.
TEST SUMMARY: Growth inhibition of human Hs 578T cells after 48 hrs by sulforhodamine B assay
Format: functional
Entry rule: numbers only, all in nM.

[ask] For the compound "C[C@H]1[C@H](OCCCCO[C@H]2O[C@@H]3O[C@@]4(C)CC[C@H]5[C@H](C)CC[C@@H]([C@H]2C)[C@@]35OO4)O[C@@H]2O[C@@]3(C)CC[C@H]4[C@H](C)CC[C@@H]1[C@@]24OO3" , what GI50 is on record?
[reply] 133

[ask] Look up GI50 for this compound: "C[C@H]1[C@@H](O[C@H]2CC[C@@H](O[C@H]3O[C@@H]4O[C@@]5(C)CC[C@H]6[C@H](C)CC[C@@H]([C@H]3C)[C@@]46OO5)CC2)O[C@@H]2O[C@@]3(C)CC[C@H]4[C@H](C)CC[C@@H]1[C@@]24OO3"
[reply] 49
